Tested on: RARb homodimer (NR concentration 270 nM)
assay procedure: PBM binding z-score (relative to random genomic background probes); higher = stronger binding; sequences stand for … in GC…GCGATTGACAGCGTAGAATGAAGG
So basically: PBM binding z-score at 2 or higher? That is Met. Lower than 2? That is Not met.

Does the reported PBM binding z-score for `CCTAGTTGGTCAGGCGGTCACACACCGGATATGA` fall at or above the 2 mark?
Met

State whether the measured PBM binding z-score reaches 2, counting equality as reaching it, for `CCTAGCAGGCCAGGGTCACTCTAGCATTTCGCTT`
Met

Entry `CGTCCAAGGTCAGCAGGTCAGTGTAAGCGACGTG` : is its PBM binding z-score no less than 2?
Met

Identify whether the reported PBM binding z-score of the following sequence is 2 or greater: `ACTATAAGTTGAGACGAGGGCAACCGATAGGTTG`
Not met

Check the entry `CCTATTAGTTGATCATAAGGGCAACCGAAGCTCG` : does PBM binding z-score equal or exceed 2?
Not met

Please tell me: is the sequence `GCTAGTTGGTCAGTGAAAGGTCACACACCGGTCG` at or over 2 in terms of PBM binding z-score?
Met

State whether the measured PBM binding z-score reaches 2, counting equality as reaching it, for `TCTATTAGTTAAAGGGCAACCGACGAGTCCGTTT`
Met

Confirm if PBM binding z-score reported for the sequence `CCTTACGGGTCACTCCAGATTATAGCATCGGAGT` is 2 or above.
Met

Test whether the sequence `CCGACTGGGGCATAAGCTTACCATAAGCCAGCCC` records PBM binding z-score of 2 or higher.
Not met

// inclusive: PBM binding z-score at least 2? input: `CCGACTGTGGCATAAGGTTACCATAAGCCAGCCC`
Not met

Does PBM binding z-score meet or surpass 2 for `AGTCAAAGTTCACTAGGTAACATAAGATTCAGCT` ?
Met

Check the entry `TCTTGTACATCAGCAGGTTAAGAAAGCTGGCCAA` : does PBM binding z-score equal or exceed 2?
Not met
